protocol_text: binders of probe aFSTL3 on microarray, primary screen, stem cell growth factor project, biochemical, small-molecule microarray, fluorescence 635/667 (AID 1064);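 also: measures binding of the biotinylated anti-FSTL3 antibody to printed compounds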
test_settings: higher = more signal
Items are presented alongside their recorded composite z-score.

| compound | composite z-score |
| --- | --- |
| CCCCCN1CC=CC23O[C@@H]4/C=C\CCC(C)OC(=O)C4[C@H]2C(=O)N(CCCO)[C@@H]3C1=O (some centres undefined) | 0.499 |
| O=C1c2ccccc2[C@](Cc2ccccc2I)(C(=O)O)[C@H](c2ccc(CO)cc2)N1Cc1ccccc1Cl | 0.668 |
| C=C[C@H](OC)[C@@H](OC(=O)Nc1ccc(OC)cc1)c1ccc(OC)c(O)c1 | 1.46 |
| CCOC(=O)C[C@H]1[C@H](OC(=O)c2ccc(C(=O)c3ccccc3)cc2)[C@@H](NC(=O)Cc2ccc(OC)cc2)c2cc(OCCCO)ccc2N1C(=O)Cc1ccc(OC)cc1 | 0.0476 |

* * *

Catalogue of activity change, negative = inhibition values
protocol_text: HepG2 cell cytotoxicity, cytotoxicity control, plate reader, single point, cherry-pick (AID 743189)
test_settings: at 25 µM, stronger effect = lower value
Some of the results follow.

| smiles_str | activity change, negative = inhibition [%] |
| --- | --- |
| COc1ccc(Nc2ncnc3sc(C)cc23)cc1 | -4.23 |
| O=C(c1ccc(Cl)cc1)c1cnc(Nc2ccccc2)s1 | -14.8 |
| Cc1ccc(-c2nc(COC(=O)c3c(C)noc3C)cs2)cc1 | -41.9 |
| COc1ccc(Nc2ccc3ccccc3c2)cc1 | 10 |
| CCc1c(C)sc(NC(=O)c2cccs2)c1C(N)=O | -29 |
| COc1ccc(-c2csc(Nc3cccc(C)n3)n2)cc1OC | 29 |
| CN(C)c1ccc(CSc2ccccc2)cc1 | -22.2 |
| COC(=O)/C(=C1\Oc2ccc(C(C)(C)C)cc2S1)C(F)(F)F | -31.4 |
| CCS(=O)(=O)n1nc(-c2ccc(OC)cc2)nc1SC | -11.2 |

* * *

System: Sam68 (KHDRBS1)
protocol_text: Sam68 small-molecule binders, primary screen, biochemical, small-molecule microarray, 635 nm fluorescence (AID 1125);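 also: score merges 667 nm channel intensity with signal to noise over triplicate slides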
test_settings: small-molecule microarray binding, higher = more signal
Listed here: items and their measured composite z-score.

| compound | system_tested | composite z-score |
| --- | --- | --- |
| C=CCNC(=O)[C@H]1[C@@H]2C(=O)O[C@@H](c3ccccc3)[C@@H](c3ccccc3)N2[C@@H](c2ccc(OCCO)cc2)[C@]12C(=O)Nc1ccc(C#CCCO)cc12 | Sam68 (KHDRBS1) | 1.14 |
| O=C1c2ccccc2C(=O)c2cc([C@H]3Oc4ccccc4S(=O)(=O)N4CCC[C@@H]34)ccc21 | Sam68 (KHDRBS1) | -1.02 |
| COC(=O)C1=CC(CCCO)=CC(C2CC2)N(Cc2cc3c(cc2Br)OCO3)C=C1C(=O)OC (stereo not drawn) | Sam68 (KHDRBS1) | 1.3 |

* * *

The following compounds are listed with their measured composite z-score values.
system_tested: Follistatin-related protein 3 (Homo sapiens) (UniProt O95633)
Sequence (O95633 whole entry, looked up): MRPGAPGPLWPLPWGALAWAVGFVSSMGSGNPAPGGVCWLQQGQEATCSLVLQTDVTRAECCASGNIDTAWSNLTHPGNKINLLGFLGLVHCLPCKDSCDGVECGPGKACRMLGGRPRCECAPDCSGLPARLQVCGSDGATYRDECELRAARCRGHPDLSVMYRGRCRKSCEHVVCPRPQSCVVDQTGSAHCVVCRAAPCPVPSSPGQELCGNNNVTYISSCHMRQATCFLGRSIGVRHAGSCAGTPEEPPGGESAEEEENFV
protocol_text: FSTL3 binders on small-molecule microarrays, primary screen, biochemical, small-molecule microarray, 635 nm fluorescence (AID 1105);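 also: score merges emission near 667 nm and signal to noise per printed spot across three slides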
test_settings: FSTL3 binding, higher = more signal

| compound | system_tested | composite z-score |
| --- | --- | --- |
| C#CCN1C(C(=O)OCC)OC[C@H]1c1ccccc1 (stereo partly specified) | Follistatin-related protein 3 (Homo sapiens) (UniProt O95633) | 0.901 |
| C=C1C=C(Br)C2(OCCCO2)[C@H]2OC12 (stereo partly specified) | Follistatin-related protein 3 (Homo sapiens) (UniProt O95633) | 0.322 |
| CCCNC(=O)[C@@H]1c2ccccc2C(=O)N(Cc2cc(C(F)(F)F)cc(C(F)(F)F)c2)[C@H]1c1ccc(CO)cc1 | Follistatin-related protein 3 (Homo sapiens) (UniProt O95633) | 0.268 |
| C=CCN1C(=O)[C@@]2(O[C@@H](CCn3cc(CCO)nn3)[C@H]([Si](C)(C)c3ccc(OC)cc3)[C@H]2C)c2cc(N3C(=O)c4cccc5cccc3c45)ccc21 | Follistatin-related protein 3 (Homo sapiens) (UniProt O95633) | 0.688 |
| C=CCN1C(=O)[C@@]2(O[C@@H](CCO)[C@H]([Si](C)(C)c3ccc(OC)cc3)[C@H]2C)c2cc(N3C(=O)c4cccc5cccc3c45)ccc21 | Follistatin-related protein 3 (Homo sapiens) (UniProt O95633) | -0.189 |
| COCCCNC(=O)[C@@]1(Cc2ccccc2)N=C(c2ccc(OCCCO)cc2)O[C@H]1c1ccccc1N=[N+]=[N-] | Follistatin-related protein 3 (Homo sapiens) (UniProt O95633) | 0.176 |

Values compiled from PubChem BioAssay.
